Overview of reported MIC across a group of compounds:
Test system: Pseudomonas aeruginosa
Experiment: Antibacterial activity against Pseudomonas aeruginosa by agar dilution method
Assay type: functional
API: value field is a number in µg/mL; no unit string.

Recorded MIC, per entry:
>  <compound>
COc1cccc2cc(/C=C/C(=O)c3cc(Br)ccc3O)c3nnnn3c12

>  <unit spec>
µg/mL

>  <observed measurement>
25

$$$$
>  <compound>
Oc1ccc(Br)cc1C1=NOC(c2cc3ccccc3n3nnnc23)C1 (centres undefined)

>  <unit spec>
µg/mL

>  <observed measurement>
25

$$$$
>  <compound>
COc1ccc2c(c1)cc(C1CC(c3cc(Br)ccc3O)=NN1)c1nnnn12 (centres undefined)

>  <unit spec>
µg/mL

>  <observed measurement>
25

$$$$

Exam item: Given the entry Oc1ccc(Br)cc1C1=NNC(c2cc3ccccc3n3nnnc23)C1 (centres undefined) , report its measured MIC.
Marked response: 50

Where do these numbers come from? They come from ChEMBL document CHEMBL5260848.
